# target-system: CDK2 (UniProt P24941)
# test-summary: Enzyme Assay
# condition-summary: concentration not given here
endpoint: inhibition (%)
Output spec: scalar in %, unitless text.

>  <compound>
Nc1nc(Nc2ccc(C(=O)NCCCO)cc2)sc1C(=O)c1c(F)cccc1F

>  <inhibition, %>
-2

$$$$
>  <compound>
CC(=O)Nc1ccccc1C(=O)c1sc(Nc2ccc(C(=O)NC[C@@H]3CCCN3C)cc2)nc1N

>  <inhibition, %>
0

$$$$
>  <compound>
CCOc1ccccc1CCNC(=O)c1ccc(Nc2nc(N)c(C(=O)c3c(F)cccc3F)s2)cc1

>  <inhibition, %>
-19

$$$$
>  <compound>
CCC(C)CN(CCO)C(=O)c1ccc(Nc2nc(N)c(C(=O)c3c(F)cccc3F)s2)cc1 (configuration not stated)

>  <inhibition, %>
-11

$$$$
>  <compound>
C=CCN(CC=C)C(=O)c1ccc(Nc2nc(N)c(C(=O)c3c(F)cccc3F)s2)cc1

>  <inhibition, %>
-20

$$$$

Now look at this one.
Challenge: For Nc1nc(Nc2ccc(C(=O)NCCc3cccc(F)c3)cc2)sc1C(=O)c1c(F)cccc1F , what is its reported inhibition?
Response given: -6

----------
# target-system: CDK2 (UniProt P24941)
# test-summary: Enzyme Assay
# condition-summary: concentration not given here
endpoint: inhibition (%)
Output spec: scalar in %, unitless text.

Previously resolved entries follow.
>  <molecule>
Nc1nc(Nc2ccc(C(=O)Nc3ccon3)cc2)sc1C(=O)c1c(F)cccc1F

>  <endpoint>
inhibition

>  <assay-result>
-1

$$$$
>  <molecule>
CCCN(C(=O)c1ccc(Nc2nc(N)c(C(=O)c3c(F)cccc3F)s2)cc1)C(C)CC (centres undefined)

>  <endpoint>
inhibition

>  <assay-result>
-16

$$$$

Challenge: For CCCCN(CCO)C(=O)c1ccc(Nc2nc(N)c(C(=O)c3c(F)cccc3F)s2)cc1 , what is its reported inhibition?
Response given: -7

Challenge: For Nc1nc(Nc2ccc(C(=O)Nc3ccc(Cl)cc3CO)cc2)sc1C(=O)c1c(F)cccc1F , what is its reported inhibition?
Response given: -11

Challenge: For CCCCC(CC)NC(=O)c1ccc(Nc2nc(N)c(C(=O)c3c(F)cccc3F)s2)cc1 (centres undefined) , what is its reported inhibition?
Response given: -30

----------
This listing pairs molecules with measured inhibition.
# target-system: CDK2 (UniProt P24941)
# test-summary: Enzyme Assay
# condition-summary: concentration not given here
Output spec: scalar in %, unitless text.

Previously resolved entries follow.
>  <molecule>
CC(C)c1cccc(NC(=O)c2ccc(Nc3nc(N)c(C(=O)c4c(F)cccc4F)s3)cc2)c1

>  <assay-result>
-12

$$$$
>  <molecule>
Cc1ccc(NC(=O)c2ccc(Nc3nc(N)c(C(=O)c4c(F)cccc4F)s3)cc2)c(F)c1

>  <assay-result>
-30

$$$$
>  <molecule>
CCCCN(CCCCO)C(=O)c1ccc(Nc2nc(N)c(C(=O)c3c(F)cccc3F)s2)cc1

>  <assay-result>
-12

$$$$
>  <molecule>
CCOCCNC(=O)c1ccc(Nc2nc(N)c(C(=O)c3c(F)cccc3F)s2)cc1

>  <assay-result>
-4

$$$$
>  <molecule>
CN(Cc1ccco1)C(=O)c1ccc(Nc2nc(N)c(C(=O)c3c(F)cccc3F)s2)cc1

>  <assay-result>
-3

$$$$

Challenge: For CCCN(CCc1ccccn1)C(=O)c1ccc(Nc2nc(N)c(C(=O)c3c(F)cccc3F)s2)cc1 , what is its reported inhibition?
Response given: -12

Challenge: For Nc1nc(Nc2ccc(C(=O)NCC3CC3)cc2)sc1C(=O)c1c(F)cccc1F , what is its reported inhibition?
Response given: 0

Challenge: For N#CCCN(CC1CCCO1)C(=O)c1ccc(Nc2nc(N)c(C(=O)c3c(F)cccc3F)s2)cc1 (centres undefined) , what is its reported inhibition?
Response given: -5

Challenge: For CN(C)CCN1CCN(C(=O)c2ccc(Nc3nc(N)c(C(=O)c4c(F)cccc4F)s3)cc2)CC1 , what is its reported inhibition?
Response given: -17

----------
# target-system: CDK2 (UniProt P24941)
# test-summary: Enzyme Assay
# condition-summary: concentration not given here
endpoint: inhibition (%)
Output spec: scalar in %, unitless text.

>  <molecule>
CCN(CC)CCN1CCN(C(=O)c2ccc(Nc3nc(N)c(C(=O)c4c(F)cccc4F)s3)cc2)CC1

>  <target-system>
CDK2 (UniProt P24941)

>  <unit>
%

>  <inhibition>
-10

$$$$
>  <molecule>
Cc1cc(NC(=O)c2ccc(Nc3nc(N)c(C(=O)c4c(F)cccc4F)s3)cc2)ccc1C(C)C

>  <target-system>
CDK2 (UniProt P24941)

>  <unit>
%

>  <inhibition>
-5

$$$$
>  <molecule>
CN(C)CCCCNC(=O)c1ccc(Nc2nc(N)c(C(=O)c3c(F)cccc3F)s2)cc1

>  <target-system>
CDK2 (UniProt P24941)

>  <unit>
%

>  <inhibition>
-4

$$$$
>  <molecule>
Nc1nc(Nc2ccc(C(=O)NCCC3OCCO3)cc2)sc1C(=O)c1c(F)cccc1F

>  <target-system>
CDK2 (UniProt P24941)

>  <unit>
%

>  <inhibition>
-10

$$$$
>  <molecule>
CCCCN(CCCC)C(=O)c1ccc(Nc2nc(N)c(C(=O)c3c(F)cccc3F)s2)cc1

>  <target-system>
CDK2 (UniProt P24941)

>  <unit>
%

>  <inhibition>
-7

$$$$

Challenge: For CCSCCNC(=O)c1ccc(Nc2nc(N)c(C(=O)c3c(F)cccc3F)s2)cc1 , what is its reported inhibition?
Response given: -6

Challenge: For CN(CC(O)CO)C(=O)c1ccc(Nc2nc(N)c(C(=O)c3c(F)cccc3F)s2)cc1 (stereo unspecified) , what is its reported inhibition?
Response given: 0

Challenge: For CCN(CCO)C(=O)c1ccc(Nc2nc(N)c(C(=O)c3c(F)cccc3F)s2)cc1 , what is its reported inhibition?
Response given: -16

Challenge: For C=C(C)CN(C)C(=O)c1ccc(Nc2nc(N)c(C(=O)c3c(F)cccc3F)s2)cc1 , what is its reported inhibition?
Response given: -2

Challenge: For CC(=O)N(C)C1CCN(C(=O)c2ccc(Nc3nc(N)c(C(=O)c4c(F)cccc4F)s3)cc2)C1 (stereo unspecified) , what is its reported inhibition?
Response given: -21

Challenge: For COC(=O)c1ccccc1NC(=O)c1ccc(Nc2nc(N)c(C(=O)c3c(F)cccc3F)s2)cc1 , what is its reported inhibition?
Response given: -4

----------
# target-system: CDK2 (UniProt P24941)
# test-summary: Enzyme Assay
# condition-summary: concentration not given here
endpoint: inhibition (%)
Output spec: scalar in %, unitless text.

>  <smiles>
Nc1nc(Nc2ccc(C(=O)Nc3ccc(Cl)nc3)cc2)sc1C(=O)c1c(F)cccc1F

>  <inhibition [%]>
-9

$$$$

Challenge: For Nc1nc(Nc2ccc(C(=O)N3CCC(CO)CC3)cc2)sc1C(=O)c1c(F)cccc1F , what is its reported inhibition?
Response given: -14

Challenge: For N#CCCN(Cc1cccnc1)C(=O)c1ccc(Nc2nc(N)c(C(=O)c3c(F)cccc3F)s2)cc1 , what is its reported inhibition?
Response given: -2

Challenge: For Nc1nc(Nc2ccc(C(=O)NCCc3ccc(Cl)cc3)cc2)sc1C(=O)c1c(F)cccc1F , what is its reported inhibition?
Response given: 0

----------
# target-system: CDK2 (UniProt P24941)
# test-summary: Enzyme Assay
# condition-summary: concentration not given here
endpoint: inhibition

Previously resolved entries follow.
>  <molecule>
C[C@@H](NC(=O)c1ccc(Nc2nc(N)c(C(=O)c3c(F)cccc3F)s2)cc1)C1CCCCC1

>  <target-system>
CDK2 (UniProt P24941)

>  <inhibition>
-18%

$$$$
>  <molecule>
COc1ccc(CNC(=O)c2ccc(Nc3nc(N)c(C(=O)c4c(F)cccc4F)s3)cc2)cc1OC

>  <target-system>
CDK2 (UniProt P24941)

>  <inhibition>
-2%

$$$$
>  <molecule>
Cc1ccc(NC(=O)c2ccc(Nc3nc(N)c(C(=O)c4c(F)cccc4F)s3)cc2)cc1Cl

>  <target-system>
CDK2 (UniProt P24941)

>  <inhibition>
-1%

$$$$
>  <molecule>
CCOc1cccc(NC(=O)c2ccc(Nc3nc(N)c(C(=O)c4c(F)cccc4F)s3)cc2)c1

>  <target-system>
CDK2 (UniProt P24941)

>  <inhibition>
-7%

$$$$
>  <molecule>
CC(C)C[C@@H](CO)NC(=O)c1ccc(Nc2nc(N)c(C(=O)c3c(F)cccc3F)s2)cc1

>  <target-system>
CDK2 (UniProt P24941)

>  <inhibition>
-16%

$$$$
>  <molecule>
CC(C)CCCC(C)NC(=O)c1ccc(Nc2nc(N)c(C(=O)c3c(F)cccc3F)s2)cc1 (stereo not given)

>  <target-system>
CDK2 (UniProt P24941)

>  <inhibition>
0%

$$$$

Challenge: For Nc1nc(Nc2ccc(C(=O)NCCc3c(Cl)cccc3Cl)cc2)sc1C(=O)c1c(F)cccc1F , what is its reported inhibition?
Response given: -21%

Challenge: For Cc1ccc(CCNC(=O)c2ccc(Nc3nc(N)c(C(=O)c4c(F)cccc4F)s3)cc2)cc1 , what is its reported inhibition?
Response given: 14%

These data points were gathered from the Kinase Knowledgebase extract (Sharma et al. 2016).
